- System: human breast adenocarcinoma cells MCF7
- Protocol details: cells
- Type: cell-based
- Measurement parameters: 24 h
Non-standard residues stand in square brackets, D forms with d. Residues, ends and D or L forms follow the SMILES beside them. *: point of attachment. Lauroyl = CCCCCCCCCCCC(=O)*; NH(CH2)4NH2 = NCCCCN*; For = O=C*
IC50 overview
Measure: IC50

CCCCCCCCCCCC(=O)N[C@H](CC(C)C)C(=O)N[C@H](CC(N)=O)C(=O)N1CCC[C@H]1C(=O)N[C@H](C(=O)N[C@H](Cc1ccccc1)C(=O)N1CCC[C@H]1C(=O)N[C@@H](Cc1c[nH]c2ccccc12)C(=O)N[C@@H](C(=O)N[C@@H](C)C(=O)N[C@H](C)C(=O)N[C@@H](CO)C(=O)N[C@@H](C)C(=O)NCCCCN)C(C)C)C(C)C [Compound 9, Glidonin I] (Lauroyl-[dL][dN]PV[dF]PW[dV]A[dA]SA-{NH(CH2)4NH2}) | > 20 µM
CSCC[C@@H](NC=O)C(=O)N[C@H](CC(N)=O)C(=O)N1CCC[C@H]1C(=O)N[C@H](C(=O)N[C@H](Cc1ccccc1)C(=O)N1CCC[C@H]1C(=O)N[C@@H](Cc1c[nH]c2ccccc12)C(=O)N[C@@H](C(=O)N[C@@H](C)C(=O)N[C@H](C)C(=O)N[C@@H](CO)C(=O)N[C@@H](C)C(=O)NCCCCN)C(C)C)C(C)C [Compound 4, Glidonin D] (For-[dM][dN]PV[dF]PW[dV]A[dA]SA-{NH(CH2)4NH2}) | > 20 µM
CSCC[C@@H](N)C(=O)N[C@H](CC(N)=O)C(=O)N1CCC[C@H]1C(=O)N[C@H](C(=O)N[C@H](Cc1ccccc1)C(=O)N1CCC[C@H]1C(=O)N[C@@H](Cc1c[nH]c2ccccc12)C(=O)N[C@@H](C(=O)N[C@@H](C)C(=O)N[C@H](C)C(=O)N[C@@H](CO)C(=O)N[C@@H](C)C(=O)NCCCCN)C(C)C)C(C)C [Compound 1, Glidonin A] (H-[dM][dN]PV[dF]PW[dV]A[dA]SA-{NH(CH2)4NH2}) | > 20 µM

====

- Test system: human breast adenocarcinoma cells MCF7
- Protocol details: cells
- Type: cell-based
- Measurement parameters: Homo sapiens, MCF7; MTT assay; Supplementary Table 11; read-out: IC50 MCF-7
Measure: IC50

COc1cccc2c1C(=O)c1c(O)c3c(c(O)c1C2=O)C[C@@](O)(C(=O)CO)C[C@@H]3O[C@H]1C[C@H](N)[C@H](O)[C@H](C)O1 [doxorubicin, reference compound] | 2600 nM

====

- System: human breast adenocarcinoma cells MDA-MB-231
- Protocol details: cells
- Format: cell-based
- Measurement parameters: 24 h
pIC50: −log10 of the molar value. Non-standard residues stand in square brackets, D forms with d. Residues, ends and D or L forms follow the SMILES beside them. *: point of attachment. Lauroyl = CCCCCCCCCCCC(=O)*; Octanoyl = CCCCCCCC(=O)*; NH(CH2)4NH2 = NCCCCN*
Measure: pIC50

CCCCCCCC(=O)N[C@H](C(=O)N[C@@H](Cc1ccccc1)C(=O)N[C@@H](CCC(=O)O)C(=O)N[C@H](C(=O)N[C@@H](C)C(=O)O)[C@@H](C)CC)C(C)C [Compound 31a] (Octanoyl-VFEIA-OH; C-terminus assumed) | 3.70
CCCCCCCCCCCC(=O)N[C@H](CC(C)C)C(=O)N[C@H](CC(N)=O)C(=O)N1CCC[C@H]1C(=O)N[C@H](C(=O)N[C@H](Cc1ccccc1)C(=O)N1CCC[C@H]1C(=O)N[C@@H](Cc1c[nH]c2ccccc12)C(=O)N[C@@H](C(=O)N[C@@H](C)C(=O)N[C@H](C)C(=O)N[C@@H](CO)C(=O)N[C@@H](C)C(=O)NCCCCN)C(C)C)C(C)C [Compound 9, Glidonin I] (Lauroyl-[dL][dN]PV[dF]PW[dV]A[dA]SA-{NH(CH2)4NH2}) | 5.37
